Biological target: T1, TNF-alpha (human, UniProt P01375 77-233)
T1 construct: also called TNFα; TNF-α
T1 sequence (P01375 77-233 limits assumed): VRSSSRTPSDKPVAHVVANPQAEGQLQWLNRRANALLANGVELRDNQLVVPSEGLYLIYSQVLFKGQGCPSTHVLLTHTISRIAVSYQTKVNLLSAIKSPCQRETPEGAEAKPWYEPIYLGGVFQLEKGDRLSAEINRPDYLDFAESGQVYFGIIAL
Assay: phage ELISA
measurement-label: binding result

As a guide, the following entries are already answered.
I074B12 (scFv) scFv: EVQLVQSGAEVKKPGSSVKVSCRASGGSFNHAISWVRQAPGRGLEWMGGILPMYGTANYAQKFQGRVTITADKLTNTVYMDLSRLRYEDTAVYYCARELGLSIVGATTGALDMWGRGTLVTVSSGGGGSGGGGSGGGGSALSYELTQPPSASGTPGQRVTISCSGSTSNIGSNAVNWYRQLPGTAPKLLVYSNNQVPSGVPDRFSGSKSGTSASLAISGLQSEDEADYYCAAWDDSLSGYVFGTGTQLTVLS ... no binding
I078D08 (scFv) scFv: QVNLRESGGGLVQPGGSLRLSCAASGFTFSSYWMSWVRQAPGKGLEWVANIKQDGSEKYYVDSVKGRFTISRDNSKNTLYLQMNSLRAEDTAVYYCARDAQSYYDILTGYQSYAFDIWGQGTTVTVSSGGGGSGGGGSGGGGSSELTQDPAVSVALGQTVRITCQGDSLRSYYTNWFQQKPGQAPLLVVYAKNKRPSGIPDRFSGSSSGNTASLTITGAQAEDEADYYCHSRDSSGNHVLFGGGTKLTVLG ... no binding
I008C02 (scFv) scFv: AVQLQESGPGLVKPSETLSLTCSVSGASMTTNKFYWSWIRQPPGKGLEWIGNINYSKSTNYNPSLKSRITISVDTSKNQLSLKLNSVTAADTAVYYCARHVRDYDILTGYYRGHYFDYWGQGTMVTVSSGGGGSGGGGSGGGGSQSVLTQPASVSGSPGQSITISCTGTSSDVGGYNYVSWYQQHPGKAPKLMIYEGSKRPSGVSNRFSGSKSGNTASLTISGLQAEDEADYYCSSYTTRSTRVFGGGTKLTVLG ... no binding
I018C02 (scFv) scFv: QVQLQQSGSELKKPGASVIVSCKVSGYSLTKMSMHWVRQSPGEGLEWVGGIDPETRQPVYAQKFQGRVTITKDTSASAAYMELSSLGSEDTALYYCARATYDPLTGYSFDGFDIWGQGTLVTVSSGGGGSGGGGSGGGGSQSVLTQPASVSGSPGQSITISCTGTSSDVGGYNYVSWYQQHPGKAPKLMIYEGSKRPSGVSNRFSGSKSGNTASLTISGLQAEDEADYYCSSYTTRSTRVFGGGTKLTVLG ... no binding

We now examine a further binder.
Looking up I007B03 (scFv) scFv: GVQLQQSGAEVKKPGSSVKVSCKASGGTFNTSGITWVRQAPGQGLEWMGWMNPNTGDTAYAQEFQGRVIMTRDTSISTAYMELSSLRSEDTAVYYCARDGSYDILTGYYIDNYMDVWGQGTMVTVSSGGGGSGGGGSGGGGSQSVLTQPASVSGSPGQSITISCTGTSSDVGGYNYVSWYQQHPGKAPKLMIYEGSKRPSGVSNRFSGSKSGNTASLTISGLQAEDEADYYCSSYTTRSTRVFGGGTKLTVLG , I found its binding result recorded as no binding
